Test: In vitro anti-proliferative activity (MTT assay), Caco-2
Assay type: cell-based
Conditions: African green monkey (Vero); human (Caco-2); SI = Cytotoxicity against Vero cells / Cytotoxicity against Caco-2 cell line; read-out: Selectivity index (SI) (Caco-2)
Catalogue of selectivity ratio readings, one per entry.

Solved cases (2 shown):
compound | selectivity ratio
Cc1ccc(NC(=O)CN2C(=O)S/C(=C3\C(=O)Nc4ccccc43)C2=O)cc1 [Compound 12a] | 365
O=C(CN1C(=O)S/C(=C2\C(=O)Nc3ccccc32)C1=O)Nc1ccccc1[N+](=O)[O-] [Compound 12b] | 4

Per the record, `Cc1ccc(NC(=O)CN2C(=O)SC(=Cc3cc4ccccc4[nH]c3=O)C2=O)cc1` has selectivity ratio of 177

Per the record, `O=C(CN1C(=O)SC(=Cc2cc3ccccc3[nH]c2=O)C1=O)Nc1ccccc1[N+](=O)[O-]` has selectivity ratio of 4.33

Per the record, `O=C(CN1C(=O)SC(=Cc2cc3ccccc3[nH]c2=O)C1=O)NCCc1ccccc1` has selectivity ratio of 5.93

---

Assay: Safety assay: in-vitro viability on non-cancerous Vero cell line
Assay type: cell-based
Details: African green monkey, Vero cells (non-cancerous cell line), MTT assay, read-out: Cytotoxicity against Vero (IC50 µM)
Description: An in-vitro viability test was used to investigate the safety patterns of the tested compounds at different concentrations (1.0 mM/mL to 50 µM/mL). […] of 100.0 µl of 6×10^4 cell/ml cells was seeded into each well of a 96-well plate and then the plates were incubated at 37 °C in a humidified 5.0% CO2 incubator for 24 h. […] At the end of incubation, cellular viability was assessed using MTS assay kit (Promega) according to the manual instruction. […]
observed-property: IC50 at 24 h (µM)
# value in µM; strip the unit string

molecule | IC50 at 24 h, µM
O=C(CN1C(=O)SC(=Cc2cc3ccccc3[nH]c2=O)C1=O)NCCc1ccccc1 [Compound 8b] | 890

Per the record, O=C(CN1C(=O)SC(=Cc2cc3ccccc3[nH]c2=O)C1=O)Nc1ccccc1[N+](=O)[O-] [Compound 8c] has IC50 at 24 h of 390

Per the record, Cc1ccc(NC(=O)CN2C(=O)SC(=Cc3cc4ccccc4[nH]c3=O)C2=O)cc1 [Compound 8a] has IC50 at 24 h of 1590

Per the record, Cc1ccc(NC(=O)CN2C(=O)S/C(=C3\C(=O)Nc4ccccc43)C2=O)cc1 [Compound 12a] has IC50 at 24 h of 730

Per the record, O=C(CN1C(=O)S/C(=C2\C(=O)Nc3ccccc32)C1=O)Nc1ccccc1[N+](=O)[O-] [Compound 12b] has IC50 at 24 h of 480

---

Test system: Caco-2
Assay: In vitro anti-proliferative activity (MTT assay), Caco-2
Type: cell-based
Settings: Homo sapiens, Caco-2; MTT assay; mean of three replicates
Mark each entry True if its IC50 sits below 90 µM, and False for all others.

compound | cat
COc1cccc2c1C(=O)c1c(O)c3c(c(O)c1C2=O)C[C@@](O)(C(=O)CO)C[C@@H]3O[C@H]1C[C@H](N)[C@H](O)[C@H](C)O1 [Doxorubicin, reference compound] | True
O=C(CN1C(=O)S/C(=C2\C(=O)Nc3ccccc32)C1=O)Nc1ccccc1[N+](=O)[O-] [Compound 12b] | False

q: Would you kindly verify if IC50 of Cc1ccc(NC(=O)CN2C(=O)S/C(=C3\C(=O)Nc4ccccc43)C2=O)cc1 [Compound 12a] is strictly less than 90 µM?
a: True

q: Would you kindly verify if IC50 of Cc1ccc(NC(=O)CN2C(=O)SC(=Cc3cc4ccccc4[nH]c3=O)C2=O)cc1 [Compound 8a] is strictly less than 90 µM?
a: True

q: Would you kindly verify if IC50 of O=C(CN1C(=O)SC(=Cc2cc3ccccc3[nH]c2=O)C1=O)NCCc1ccccc1 [Compound 8b] is strictly less than 90 µM?
a: False

---

Target: VEGFR-2 (Homo sapiens, UniProt P35968)
Construct: purchased
Sequence (P35968 20-1356): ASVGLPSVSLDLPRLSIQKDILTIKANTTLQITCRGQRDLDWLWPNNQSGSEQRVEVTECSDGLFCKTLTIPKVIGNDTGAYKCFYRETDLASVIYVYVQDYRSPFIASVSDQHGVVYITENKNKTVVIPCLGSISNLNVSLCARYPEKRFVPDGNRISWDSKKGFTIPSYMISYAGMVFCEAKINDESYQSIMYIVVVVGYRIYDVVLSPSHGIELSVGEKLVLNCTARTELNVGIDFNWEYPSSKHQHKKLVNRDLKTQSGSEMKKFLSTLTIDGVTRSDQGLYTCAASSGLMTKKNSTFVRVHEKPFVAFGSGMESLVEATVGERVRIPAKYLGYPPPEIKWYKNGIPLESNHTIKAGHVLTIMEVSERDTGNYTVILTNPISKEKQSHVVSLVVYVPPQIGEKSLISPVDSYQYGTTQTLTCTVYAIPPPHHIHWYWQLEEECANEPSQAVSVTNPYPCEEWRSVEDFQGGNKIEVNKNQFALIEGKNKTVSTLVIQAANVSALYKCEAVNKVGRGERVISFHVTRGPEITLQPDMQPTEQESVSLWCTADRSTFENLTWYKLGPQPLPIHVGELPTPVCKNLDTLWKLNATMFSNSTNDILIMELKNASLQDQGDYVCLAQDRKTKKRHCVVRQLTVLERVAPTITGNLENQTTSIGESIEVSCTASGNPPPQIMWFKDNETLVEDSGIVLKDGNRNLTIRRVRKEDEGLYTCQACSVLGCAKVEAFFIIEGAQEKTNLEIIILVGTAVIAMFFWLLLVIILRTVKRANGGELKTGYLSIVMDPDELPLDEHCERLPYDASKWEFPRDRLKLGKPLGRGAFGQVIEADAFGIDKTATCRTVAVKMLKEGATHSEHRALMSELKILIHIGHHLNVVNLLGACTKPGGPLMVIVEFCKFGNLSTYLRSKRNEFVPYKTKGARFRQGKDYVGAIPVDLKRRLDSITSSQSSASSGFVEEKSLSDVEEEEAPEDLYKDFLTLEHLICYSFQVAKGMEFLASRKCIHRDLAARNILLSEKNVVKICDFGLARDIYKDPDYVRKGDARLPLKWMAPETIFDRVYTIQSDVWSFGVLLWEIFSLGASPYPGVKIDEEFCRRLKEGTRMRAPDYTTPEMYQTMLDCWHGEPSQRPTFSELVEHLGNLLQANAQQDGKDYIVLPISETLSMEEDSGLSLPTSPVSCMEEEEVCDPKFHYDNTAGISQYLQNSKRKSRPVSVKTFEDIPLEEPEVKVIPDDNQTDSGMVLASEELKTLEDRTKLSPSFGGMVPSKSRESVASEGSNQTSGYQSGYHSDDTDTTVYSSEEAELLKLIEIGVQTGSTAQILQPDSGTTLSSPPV
Assay: In vitro VEGFR-2 kinase assay (VEGFR-2 ELISA kit)
Assay type: biochemical
Details: raw data curve fit, % remaining activity
Catalogue of HillSlope, best-fit value, VEGFR-2 inhibition readings, one per entry.
Please respond with just the number, no unit label.

molecule | endpoint-value
Cc1ccc(NC(=O)CN2C(=O)S/C(=C3\C(=O)Nc4ccccc43)C2=O)cc1 [Compound 12a] | -0.4584
O=C(CN1C(=O)S/C(=C2\C(=O)Nc3ccccc32)C1=O)Nc1ccccc1[N+](=O)[O-] [Compound 12b] | -0.2985
O=C(CN1C(=O)SC(=Cc2cc3ccccc3[nH]c2=O)C1=O)Nc1ccccc1[N+](=O)[O-] | -0.3460
Cc1ccc(NC(=O)CN2C(=O)SC(=Cc3cc4ccccc4[nH]c3=O)C2=O)cc1 | -0.4030

Turning to the following molecule.
Per the record, `O=C(CN1C(=O)SC(=Cc2cc3ccccc3[nH]c2=O)C1=O)NCCc1ccccc1` has HillSlope, best-fit value, VEGFR-2 inhibition of -0.3502

---

Reported IC50 for target or system VEGFR-2 (Homo sapiens), by entry.
# value in nM; strip the unit string

compound | observed-property | endpoint-value
Cc1ccc(NC(=O)CN2C(=O)SC(=Cc3cc4ccccc4[nH]c3=O)C2=O)cc1 [Compound 8a] | IC50 | 96.6
O=C(CN1C(=O)SC(=Cc2cc3ccccc3[nH]c2=O)C1=O)Nc1ccccc1[N+](=O)[O-] [Compound 8c] | IC50 | 318
O=C(CN1C(=O)S/C(=C2\C(=O)Nc3ccccc32)C1=O)Nc1ccccc1[N+](=O)[O-] [Compound 12b] | IC50 | 84.1

Turning to the following compound.
Per the record, O=C(CN1C(=O)SC(=Cc2cc3ccccc3[nH]c2=O)C1=O)NCCc1ccccc1 [Compound 8b] has IC50 of 87.4

---

Biological target: VEGFR-2 (Homo sapiens)
Construct: purchased
Test: In vitro VEGFR-2 kinase assay (VEGFR-2 ELISA kit)
Assay type: biochemical
Settings: raw data curve fit, % remaining activity
observed-property: LogIC50, best-fit value, VEGFR-2 inhibition

molecule | endpoint-value
Cc1ccc(NC(=O)CN2C(=O)SC(=Cc3cc4ccccc4[nH]c3=O)C2=O)cc1 | 1.985 Log (nM)
O=C(CN1C(=O)SC(=Cc2cc3ccccc3[nH]c2=O)C1=O)NCCc1ccccc1 | 1.941 Log (nM)
O=C(CN1C(=O)SC(=Cc2cc3ccccc3[nH]c2=O)C1=O)Nc1ccccc1[N+](=O)[O-] | 2.502 Log (nM)
Cc1ccc(NC(=O)CN2C(=O)S/C(=C3\C(=O)Nc4ccccc43)C2=O)cc1 [Compound 12a] | 2.066 Log (nM)

Turning to the following molecule.
Per the record, O=C(CN1C(=O)S/C(=C2\C(=O)Nc3ccccc32)C1=O)Nc1ccccc1[N+](=O)[O-] [Compound 12b] has LogIC50, best-fit value, VEGFR-2 inhibition of 1.925 Log (nM)
